// values below are reported GI50
System: NCI-H522
Assay: NCI tumour cell line growth inhibition, 48 h
Active and inactive are the calls of the source. Cut-off read from the data, not from the text of the source: active = GI50 up to about 1.1 µM and inactive = higher.

| Molecule | Assayed target | GI50 |
| --- | --- | --- |
| CCN(CC)c1c(-c2c(OC(C)C)c(=O)c2=O)c(=O)n2ccsc2c1OC(C)=O | NCI-H522 | 17.5 µM (inactive) |
| NCC1(N2CCOCC2)C2CCCC21CNc1ccccc1 (stereo unspecified) | NCI-H522 | > 100 µM (inactive) |
| COc1ccc2c(c1O)[C@@]13C=C(O)C(=O)C=C1[C@@H](C2)N(C)CC3 | NCI-H522 | 28.8 µM (inactive) |
| Nc1ccc([As](=O)(O)O)cc1 | NCI-H522 | > 100 µM (inactive) |
| CCC(O)(c1ccc(OC)cc1)C(c1ccc(OCc2ccccc2)cc1)c1ccc(OCc2ccccc2)cc1 (stereo unspecified) | NCI-H522 | > 100 µM (inactive) |
| Clc1cc2nnn(C3CCCO3)c2cc1Cl (stereo unspecified) | NCI-H522 | > 100 µM (inactive) |
| COC1CC(O)C(OC(=O)c2ccccc2)C(C)O1 (stereo unspecified) | NCI-H522 | > 100 µM (inactive) |
| O=C(CC(C(=O)c1cccs1)c1ccsc1)c1ccccc1 (stereo unspecified) | NCI-H522 | 61.7 µM (inactive) |
| CN(CC1(CO)CCC1)c1cc(Cl)nc(N)n1 | NCI-H522 | > 100 µM (inactive) |
| Cc1ccc(S(=O)(=O)OCC/C(=C\[Si](C)(C)C)c2ccccc2)cc1 | NCI-H522 | > 100 µM (inactive) |
| COc1ccc(OC)c(C2Cc3cnc4nc(N)nc(N)c4c3C2)c1 (stereo unspecified) | NCI-H522 | 24.1 µM (inactive) |

====

System: SNB-19
Assay: NCI tumour cell line growth inhibition, 48 h
The source made the active and inactive calls. Rule as the data show it: active = GI50 up to about 1.1 µM and inactive = higher.
Experimental readout: GI50

| Compound | Result |
| --- | --- |
| Cc1n[nH]c(N)c1C(N)=O | > 100 µM (inactive) |
| CN(C(=S)Cc1ccc(Cl)c(Cl)c1)C1CCCC[C@@H]1N1CCCC1 (stereo not given in full) | > 100 µM (inactive) |
| O=C(O)C1C(C(=O)O)C23CC2(C(=O)O)C2(C(=O)O)CCC3=C3CCCC312 (stereo not given) | 7.93 µM (inactive) |
| COC(=O)c1c(O)ccc2c1c1c(n2CCc2ccc(OC)c(OC)c2)C(=O)c2ccccc2C1=O | 22.5 µM (inactive) |
| COC(=O)CC1NC(=O)[C@@H]1C(C)O (stereo not given in full) | > 100 µM (inactive) |
| CC(=O)OC[C@H]1CN(OC(C)=O)C[C@@H](n2cc(C)c(=O)[nH]c2=O)O1 | > 100 µM (inactive) |
| O=C1c2cc3c(cc2CC12Cc1cc4c(cc1C2=O)CCC4)CCCC3 (stereo not given) | > 100 µM (inactive) |
| CC(=O)c1ccc(N2CCN(C3=C(Cl)C(=O)c4c(O)ccc(O)c4C3=O)CC2)cc1 | 20.7 µM (inactive) |
| CC(C)(C)[Si](C)(C)O/N=C\c1cccc(O[Si](C)(C)C(C)(C)C)c1 | 20.7 µM (inactive) |
| O=C1CN(c2ccccc2)C(=O)CN1CCN1CC(=O)N(c2ccccc2)CC1=O | > 100 µM (inactive) |

====

Measured GI50 accompanies every entry in the list below.
Test system: SK-OV-3
Assay: NCI tumour cell line growth inhibition, 48 h
Activity calls are given as the source filed them. Cut-off read from the data, not from the text of the source: active = GI50 up to about 1.1 µM and inactive = higher.

| Molecule | Assayed target | GI50 |
| --- | --- | --- |
| COc1ccc(C)cc1NC(=S)N/N=C/c1ccc(SC)cc1 | SK-OV-3 | 19.5 µM (inactive) |
| COC(NC(N)=O)C(=O)O (configuration not stated) | SK-OV-3 | > 100 µM (inactive) |
| S=C(S)NCC1CCC(CNC(=S)S)CC1 (configuration not stated) | SK-OV-3 | > 100 µM (inactive) |
| N#C/C(=C\c1cc(O)c(O)c(O)c1)C(N)=O | SK-OV-3 | > 100 µM (inactive) |
| Cc1nc(Cl)c(CBr)c(Cl)n1 | SK-OV-3 | 3.84 µM (inactive) |
| O=C(N/N=C/c1cccc(F)c1)c1ccncc1 | SK-OV-3 | > 100 µM (inactive) |
| Nc1nc(Cl)cc(NCC(O)CO)n1 (configuration not stated) | SK-OV-3 | > 100 µM (inactive) |
| OC1c2ccccc2CCC1CN1CCN(CCOC(c2ccc(F)cc2)c2ccc(F)cc2)CC1 (configuration not stated) | SK-OV-3 | 94.8 µM (inactive) |
| COc1cc2nc(-c3cccs3)nc(Nc3cccc([N+](=O)[O-])c3)c2cc1OC | SK-OV-3 | 20.3 µM (inactive) |
| COc1ccc(CCN2CCN(CCc3ccc(OC)cc3)CC2)cc1 | SK-OV-3 | > 100 µM (inactive) |
| CCCCCCCCCCCCCC1CCC(CC)N1 (configuration not stated) | SK-OV-3 | 17 µM (inactive) |
| CN(C)CCCOc1ccc(/C=C2/CCC/C(=C/c3ccc(OCCCN(C)C)cc3)C2=O)cc1 | SK-OV-3 | 1.93 µM (inactive) |

====

Test system: NCI-H522
Assay: NCI tumour cell line growth inhibition, 48 h
Structures can show the parent of a compound that is named as a salt. The source made the active and inactive calls. Cut-off read from the data, not from the text of the source: active = GI50 up to about 1.1 µM and inactive = higher.
Listed next: entries and their corresponding GI50.

| Compound | GI50 |
| --- | --- |
| Cc1ccc(/N=c2/oc3c(ccc4ccccc43)nc2Nc2ccc(C)cc2)cc1 | > 100 µM (inactive) |
| O=C1c2cc3c(cc2CC12Cc1cc4c(cc1C2=O)CCC4)CCCC3 (stereo not drawn) | > 100 µM (inactive) |
| O=C(CC1C(=O)Nc2ccccc2S1(=O)=O)Nc1ccc(Cl)cc1 (stereo not drawn) | 16.3 µM (inactive) |
| CN1CCc2cc3c4cc2C1Cc1ccc(cc1)Oc1cc(ccc1O)CC1c2c(cc(O)c(c2O4)O3)CCN1C (stereo not drawn) | 2.79 µM (inactive) |
| O=c1c(C(c2ccc(-c3ccccc3)cc2)c2c(O)oc3ccccc3c2=O)c(O)oc2ccccc12 | 24 µM (inactive) |
| CCOC(=O)c1c(SC(=O)c2ccc(C(C)(C)C)cc2)n(-c2ccccc2)c(=S)n(-c2ccccc2)c1=O | > 100 µM (inactive) |
| CNC(C)Cc1ccccc1OC (stereo not drawn) [METHOXYPHENAMINE HYDROCHLORIDE] | > 100 µM (inactive) |
| COC1[C@@H](OC(C)=O)[C@@H](NC(=O)C(Cl)(Cl)Cl)C(I)[C@@H](N2C(=O)c3ccccc3C2=O)[C@H]1OC (stereo partly drawn) | > 100 µM (inactive) |

====

Test system: COLO 205
Test: NCI tumour cell line growth inhibition, 48 h
Counter-ions that a name gives are not always drawn. Active and inactive are the calls of the source. Rule as the data show it: active = GI50 up to about 1.1 µM and inactive = higher. Non-standard residues stand in square brackets, D forms with d. Residues, ends and D or L forms follow the SMILES beside them. ξ: configuration not given here. *: point of attachment. X18 = COC1=CC(=O)N(C(=O)C(O*)C(C)C)C1Cc1ccccc1; ξNMe2Val = CC(C)C(C(=O)*)N(C)C; NMeV = CN[CH](C(=O)O)C(C)C
Classes used: T for active, F for inactive

| Molecule | Class label |
| --- | --- |
| CSCCC(NC(c1ccccc1)c1ccccc1)[PH](=O)O (stereo unspecified) | F |
| CC(C)(C)NC(=O)N1N=C(c2ccccc2)C1c1ccccc1 (stereo unspecified) | F |
| NCCCCNCCCN [SPERMIDINE TRIHYDROCHLORIDE] | F |
| COc1ccc(C2C(=O)c3c(OC)cc(OC)cc3OC2c2cccnc2)cc1 (stereo unspecified) | F |
| CNC(=O)c1nc[nH]c1/N=N/N(C)N | F |
| COC(=O)C1=COC(C)C2C[n+]3ccc4c([nH]c5ccccc54)c3CC12 (stereo unspecified) | F |
| C=CCC1C(O[Si](C)(C)C(C)(C)C)C(CO[Si](C)(C)C(C)(C)C)OC1n1ccc(=O)[nH]c1=O (stereo unspecified) | F |
| CC(=O)C1=CC=C/C1=N\Nc1ccccc1 | F |
| CN1CCc2cc3c4cc2C1Cc1ccc(cc1)Oc1cc(ccc1O)CC1c2c(cc(O)c(c2O4)O3)CCN1C (stereo unspecified) | F |
| C=C(C)C(=O)N1c2ccc(OC)cc2CC1C(=O)OCC (stereo unspecified) | F |
| O=C/C1=C/C2=Cc3ccccc3C=C(/C=C(/C=O)C1)C2 | F |
| CC(C)(C)/C(O)=C\c1nc2ccc(C(F)(F)F)cc2[nH]c1=O | F |
| CN(C)CCNC(=O)C(C)(C)Oc1ccc(C(=O)c2ccc(Cl)cc2)cc1Cl | F |
| CC(SC1=CC(=O)c2c(Cl)ccc(O)c2C1=O)C(=O)O (stereo unspecified) | F |
| COc1ccc(N2C(=O)CS(=O)(=O)C2c2cccc(Oc3ccccc3)c2)cc1 (stereo unspecified) | F |
| CC(C)(C)OC(=O)c1cnc(Cl)cn1 | F |
| O=C(O)c1ccccc1C(=O)c1ccc2c(c1)Cc1ccccc1-2 | F |
| COc1cc2c(cc1OC)C(CCN)=NCC2 | F |
| O=C(CC(=O)N(C(=O)c1ccccc1)c1ccc(Cl)cc1)N/N=C\c1ccccc1O | F |
| COC1=CC(=O)N(C(=O)C(OC(=O)C2CCCN2C(=O)C2CCCN2C(=O)C(C(C)C)N(C)C(=O)C(NC(=O)C(C(C)C)N(C)C)C(C)C)C(C)C)C1Cc1ccccc1 (stereo unspecified) (ξNMe2Val-V[NMeV]PP-X18; configuration not given here) | T |
| O=C(NC1CC1)c1c(O)[nH]c(=S)[nH]c1=O | F |
